biological target: Beta-1,4-galactosyltransferase 1 (Bos taurus, UniProt P08037); experiment: Compound was tested for the inhibition recombinant bovine beta -1,4 -galactosyl transferase (beta-1,4-GalT)
Sequence (P08037 whole entry): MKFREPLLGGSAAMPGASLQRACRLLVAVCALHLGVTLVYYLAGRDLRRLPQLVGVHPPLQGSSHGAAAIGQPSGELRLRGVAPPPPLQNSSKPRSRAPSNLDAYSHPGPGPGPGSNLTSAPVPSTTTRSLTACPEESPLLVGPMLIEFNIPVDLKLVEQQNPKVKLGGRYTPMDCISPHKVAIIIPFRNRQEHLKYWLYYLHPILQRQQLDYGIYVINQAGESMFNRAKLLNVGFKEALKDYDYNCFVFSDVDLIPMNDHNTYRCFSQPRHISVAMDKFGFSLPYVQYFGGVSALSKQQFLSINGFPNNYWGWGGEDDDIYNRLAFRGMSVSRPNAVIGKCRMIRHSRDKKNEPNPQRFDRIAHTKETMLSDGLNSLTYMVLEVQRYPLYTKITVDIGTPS
QUANTITY: Ki (µM)

[[record]]
molecule = "CC(=O)NC1C(Oc2ccc3cc(Br)ccc3c2)OC(CO)C(O)C1O (stereo unspecified)"
observed_result = 7.6

[[record]]
molecule = "CC(=O)NC1C(Oc2cccc3ccccc23)OC(CO)C(O)C1O (stereo unspecified)"
observed_result = 22

[[record]]
molecule = "CC(=O)NC1C(OCc2ccccc2)OC(CO)C(N)C1O (stereo unspecified)"
observed_result = 850

[[record]]
molecule = "COc1ccc2cc(OC3OC(CO)C(O)C(O)C3NC(C)=O)ccc2c1 (stereo unspecified)"
observed_result = 3.5

[[record]]
molecule = "CC(=O)NC1C(Oc2ccc3ccccc3c2)OC(CO)C(O)C1O (stereo unspecified)"
observed_result = 9.5

[[record]]
molecule = "CO[C@@H]1O[C@@H](CO)[C@H](O)[C@H](O[C@@H]2O[C@@H](CS)[C@@H](O)[C@H](O)[C@@H]2NC(C)=O)[C@@H]1O"
observed_result = 1000

